EXPERIMENT_NOTES: method code SF-AS, from DOI: 10.1111/j.2042-7158.1992.tb14369.x, PMID: 1350635
CONDITION: pH 13.0
MEASURED_METRIC: logD
// print number alone

For reference, reported logD for CC(=O)c1cc2cccc(OCC(O)CNC(C)C)c2o1 (stereo unspecified) stands at 2.02

So, CC(C)NCC(O)COc1ccc(COCCOC(C)C)cc1 (stereo unspecified) ? Its logD was 1.87

# logD of CC(C)NCC(O)COc1ccccc1C1CC1 (stereo unspecified) = 3.07

So, "CC(C)NC[C@H](O)COc1ccc(OCCOCCc2ccc(F)cc2)cc1" ? Its logD was 3.7

// logD value for CC(=O)Nc1ccc(OCC(O)CNC(C)C)c(C(C)=O)c1 (stereo unspecified) : 0.94

C#CCOc1ccccc1OCC(O)CNC(C)(C)C (stereo unspecified) has a reported logD of 2.32

logD for COc1ccccc1OCC(O)CNC(C)C (stereo unspecified) is 1.69

The reported value for CC(C)NCC(O)COc1ccccc1C1CC2CCC1C2 (stereo unspecified) in terms of logD is 4.17

Summary for this molecule, CC(C)NCC(O)COc1ccc(CCOCC2CC2)cc1 (stereo unspecified) : logD is 2.81

logD measured on CNC(=O)COc1ccccc1OCC(O)CNC(C)(C)C (stereo unspecified) = 1.36

# logD (molecule: Cc1cc2c(OCC(O)CNC(C)C)cccc2[nH]1 (stereo unspecified) ) is 2.3
